Molecular target: T1, NGFR-Fc (human, UniProt P08138 29-250)
T1 construct: bought; also called NGFR (R&D Systems, 367-NR-050/CF); not shown: Fc part of the bought fusion
T1 sequence (looked up): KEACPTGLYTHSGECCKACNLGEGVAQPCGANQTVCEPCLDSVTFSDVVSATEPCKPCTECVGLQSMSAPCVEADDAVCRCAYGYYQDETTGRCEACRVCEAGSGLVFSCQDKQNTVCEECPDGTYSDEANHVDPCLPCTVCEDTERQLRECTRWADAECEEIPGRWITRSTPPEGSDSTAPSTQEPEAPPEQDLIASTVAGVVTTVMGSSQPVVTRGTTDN
Experiment: SPR, antigen immobilised on CM5 chip

Binder: G1AA/FS30-15 (antibody, human IgG1, kappa, L234A L235A, V domains shown, human IgG1 with LALA mutation in CH2; also called FS30-15 mAb) VH: EVQLLESGGGLVQPGGSLRLSCAASGFTFSGSGMSWVRQAPGKGLEWVSIIYSTNGDTDYADSVKGRFTISRDNSKNTLYLQMNSLRAEDTAVYYCARDFYDIANYYAFDYWGQGTLVTVSS VL: EIVLTQSPGTLSLSPGERATLSCRASQSVSSSYLAWYQQKPGQAPRLLIYGASSRATGIPDRFSGSGSGTDFTLTISRLEPEDFAVYYCQQAYYDPITFGQGTKVEIKR
binding result: binds
